The reported numbers originate from patent US6281214A.

Target: adrenergic α1 receptor
Test: adrenergic α1 receptor binding test ([3H] Prazosin Binding Test)
Set-up: species or system SD rats
Settings: 1 nM [3H] Prazosin, rat cortex, room temperature, 60 minutes
pKi: −log10 of the molar value.
Please respond with reported pKi for every item in the list.

Some solved cases for reference:
# molecule, pKi
rows = [
    ("CCN1CCN(c2cc(-c3ccccc3)c(OC)c(-c3ccco3)c2)CC1", "< 6.00"),
    ("CCN1CCN(c2cc(-c3ccccc3)c(OC)c(S(=O)(=O)CCCOc3ccc(F)cc3)c2)CC1", "< 7.00"),
    ("CCN1CCN(c2cc(C(=O)c3ccccn3)c(OC)c(-c3ccccc3)c2)CC1", "< 6.00"),
    ("CCCc1cc(N2CCN(CC)CC2)cc(-c2ccccc2C)c1OC", "< 6.00"),
    ("CCN1CCN(c2cc(-c3ccccc3)c(OC)c([S+]([O-])Cc3ccccc3)c2)CC1 (centres unmarked)", "< 6.00"),
]

I need pKi for every entry listed below, if you could help.
1. CCC(F)c1cc(N2CCN(CCO)CC2)cc(-c2ccccc2C)c1Cl (centres unmarked)
2. COc1c(C(=O)Cc2ccccc2)cc(N2CCN(Cc3ccccc3)CC2)cc1-c1ccccc1
3. CCN1CCN(c2cc(-c3ccccc3C)c(Cl)c(N3CCCC3)c2)CC1

(A)
< 6.00
< 6.00
< 6.00

----------
// values below are pKi; system is serotonin S2 receptor (Rattus norvegicus, UniProt P14842)
Sequence (P14842 whole entry): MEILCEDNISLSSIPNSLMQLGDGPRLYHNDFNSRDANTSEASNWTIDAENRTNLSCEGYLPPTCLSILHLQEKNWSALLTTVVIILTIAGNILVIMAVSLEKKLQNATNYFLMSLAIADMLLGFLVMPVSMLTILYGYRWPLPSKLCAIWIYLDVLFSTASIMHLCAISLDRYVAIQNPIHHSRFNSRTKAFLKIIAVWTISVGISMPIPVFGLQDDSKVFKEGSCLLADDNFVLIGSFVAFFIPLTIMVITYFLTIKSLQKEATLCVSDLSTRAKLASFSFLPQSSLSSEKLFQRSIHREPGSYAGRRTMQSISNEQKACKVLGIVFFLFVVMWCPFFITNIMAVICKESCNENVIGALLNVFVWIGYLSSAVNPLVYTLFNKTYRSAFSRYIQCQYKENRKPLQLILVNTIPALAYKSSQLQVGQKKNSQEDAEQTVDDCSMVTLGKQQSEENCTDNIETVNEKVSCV
Numbers only, as −log10 of the molar value.

# molecule, dataValue
records = [
    ("CCC(C)c1cc(N2CCN(CC)CC2)cc(-c2ccccc2)c1Cl (stereo not shown)", 7.82),
    ("CCCC(F)c1cc(N2CCN(CC)CC2)cc(-c2ccccc2)c1OC (stereo not shown)", 8.24),
    ("C=CCCC(F)c1cc(N2CCN(CC)CC2)cc(-c2ccccc2C)c1Cl (stereo not shown)", 7.83),
]

I need pKi for every entry listed below, if you could help.
1. CC[C@H](F)c1cc(N2CCN(CC)CC2)cc(-c2ccc(F)cc2C)c1Cl
2. CN1CCN(c2cc(NS(C)(=O)=O)c(Cl)c(-c3ccccc3Cl)c2)CC1

(A)
1: 8.06; 2: 7.32

----------
Please respond with reported pKi for every item in the list.
Target: dopamine D2 receptor (Rattus norvegicus)
Construct: the receptor fraction prepared from the corpus striatum was molten and suspended; from tissue; host or cells: corpus striatum of SD rats (membrane fraction)
Sequence (P61169 whole entry): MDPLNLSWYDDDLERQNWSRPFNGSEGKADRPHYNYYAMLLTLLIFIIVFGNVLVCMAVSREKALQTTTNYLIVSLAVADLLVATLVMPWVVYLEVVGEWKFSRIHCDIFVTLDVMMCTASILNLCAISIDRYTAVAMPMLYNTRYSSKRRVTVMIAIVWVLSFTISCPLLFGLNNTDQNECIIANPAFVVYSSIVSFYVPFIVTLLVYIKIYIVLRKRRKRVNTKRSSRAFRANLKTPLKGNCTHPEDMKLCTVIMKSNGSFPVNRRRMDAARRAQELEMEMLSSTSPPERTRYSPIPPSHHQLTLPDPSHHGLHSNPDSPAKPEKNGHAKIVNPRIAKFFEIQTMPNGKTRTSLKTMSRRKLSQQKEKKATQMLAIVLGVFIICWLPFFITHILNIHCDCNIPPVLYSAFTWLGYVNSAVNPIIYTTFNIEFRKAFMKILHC
Assay: dopamine D2 receptor binding test ([3H] Spiperone Binding Test)
Set-up: species or system SD rats
Settings: 1 nM [3H] Spiperone, rat corpus striatum, room temperature, 60 minutes; read-out: Ki value, dopamine D2 receptor
Answers are plain numbers, as −log10 of the molar value.

Some solved cases for reference:
# molecule, measuredOn, pKi
measured = [
    ("CCC(F)c1cc(N2CCN(CCO)CC2)cc(-c2ccccc2C)c1Cl (centres unmarked) [Example 26]", "dopamine D2 receptor (Rattus norvegicus)", 8.57),
    ("CCC(CC)c1cc(N2CCN(CC)CC2)cc(-c2ccccc2C)c1Cl [Example 157]", "dopamine D2 receptor (Rattus norvegicus)", 8.14),
]

I need pKi for every entry listed below, if you could help.
1. CCN1CCN(c2cc(NS(=O)(=O)CC)c(Cl)c(-c3ccccc3C)c2)CC1 [Example 18]
2. CCCS(=O)(=O)Nc1cc(N2CCN(CC)CC2)cc(-c2ccccc2)c1Cl [Example 184]
3. CCC(F)c1cc(N2CCN(CCCc3ccncc3)CC2)cc(-c2ccccc2C)c1Cl (centres unmarked) [Example 150]

(A)
9.12
9.77
8.10

(Q) Look up and report measured pKi (dopamine D2 receptor (Rattus norvegicus)) for the following molecule: CCN1CCN(c2cc(-c3ccccc3)c(OC)c(-c3ccccc3)c2)CC1 [Example 56]
(A) 6.95
